Data credit: the supplement of paper PMC6757056

Give measured normalized RNA/DNA level without ligand (log10) for each item. Keep answers brief.
B1: library; a variant is named by its letters at N, in order (parent)
chain: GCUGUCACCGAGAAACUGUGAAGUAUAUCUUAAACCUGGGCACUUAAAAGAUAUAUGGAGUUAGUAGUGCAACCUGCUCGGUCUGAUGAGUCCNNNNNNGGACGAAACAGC

Variants of: B1
Assay: normalized RNA/DNA level without ligand (relative to sTRSVctl = 100) (log10 (% of sTRSVctl)); HEK293T; ligand: cyclic di-GMP (c-di-GMP-II aptamer); higher = less ribozyme self-cleavage, higher mRNA level
Conditions: reporter: mCherry (pCS4076), ligand present: no
Numbers only.

Below, 8 variants whose answers are already recorded.
GCUGUCACCGAGAAACUGUGAAGUAUAUCUUAAACCUGGGCACUUAAAAGAUAUAUGGAGUUAGUAGUGCAACCUGCUCGGUCUGAUGAGUCCGUGCUUGGACGAAACAGC [GUGCUU]	1.71
GCUGUCACCGAGAAACUGUGAAGUAUAUCUUAAACCUGGGCACUUAAAAGAUAUAUGGAGUUAGUAGUGCAACCUGCUCGGUCUGAUGAGUCCUCAGCUGGACGAAACAGC [UCAGCU]	1.67
GCUGUCACCGAGAAACUGUGAAGUAUAUCUUAAACCUGGGCACUUAAAAGAUAUAUGGAGUUAGUAGUGCAACCUGCUCGGUCUGAUGAGUCCGGACACGGACGAAACAGC [GGACAC]	1.71
GCUGUCACCGAGAAACUGUGAAGUAUAUCUUAAACCUGGGCACUUAAAAGAUAUAUGGAGUUAGUAGUGCAACCUGCUCGGUCUGAUGAGUCCCACUAAGGACGAAACAGC [CACUAA]	1.3
GCUGUCACCGAGAAACUGUGAAGUAUAUCUUAAACCUGGGCACUUAAAAGAUAUAUGGAGUUAGUAGUGCAACCUGCUCGGUCUGAUGAGUCCAAUCUCGGACGAAACAGC [AAUCUC]	1.74
GCUGUCACCGAGAAACUGUGAAGUAUAUCUUAAACCUGGGCACUUAAAAGAUAUAUGGAGUUAGUAGUGCAACCUGCUCGGUCUGAUGAGUCCCAACCAGGACGAAACAGC [CAACCA]	1.54
GCUGUCACCGAGAAACUGUGAAGUAUAUCUUAAACCUGGGCACUUAAAAGAUAUAUGGAGUUAGUAGUGCAACCUGCUCGGUCUGAUGAGUCCUCUCUCGGACGAAACAGC [UCUCUC]	1.81
GCUGUCACCGAGAAACUGUGAAGUAUAUCUUAAACCUGGGCACUUAAAAGAUAUAUGGAGUUAGUAGUGCAACCUGCUCGGUCUGAUGAGUCCUUCUAGGGACGAAACAGC [UUCUAG]	1.75

Hi, could you look up normalized RNA/DNA level without ligand (log10) for each item in my list?
1. GCUGUCACCGAGAAACUGUGAAGUAUAUCUUAAACCUGGGCACUUAAAAGAUAUAUGGAGUUAGUAGUGCAACCUGCUCGGUCUGAUGAGUCCGACUGGGGACGAAACAGC [GACUGG]
2. GCUGUCACCGAGAAACUGUGAAGUAUAUCUUAAACCUGGGCACUUAAAAGAUAUAUGGAGUUAGUAGUGCAACCUGCUCGGUCUGAUGAGUCCGAAGAAGGACGAAACAGC [GAAGAA]
3. GCUGUCACCGAGAAACUGUGAAGUAUAUCUUAAACCUGGGCACUUAAAAGAUAUAUGGAGUUAGUAGUGCAACCUGCUCGGUCUGAUGAGUCCUCCAGAGGACGAAACAGC [UCCAGA]
4. GCUGUCACCGAGAAACUGUGAAGUAUAUCUUAAACCUGGGCACUUAAAAGAUAUAUGGAGUUAGUAGUGCAACCUGCUCGGUCUGAUGAGUCCACACUCGGACGAAACAGC [ACACUC]
5. GCUGUCACCGAGAAACUGUGAAGUAUAUCUUAAACCUGGGCACUUAAAAGAUAUAUGGAGUUAGUAGUGCAACCUGCUCGGUCUGAUGAGUCCUCAAUGGGACGAAACAGC [UCAAUG]
6. GCUGUCACCGAGAAACUGUGAAGUAUAUCUUAAACCUGGGCACUUAAAAGAUAUAUGGAGUUAGUAGUGCAACCUGCUCGGUCUGAUGAGUCCUUCUGCGGACGAAACAGC [UUCUGC]

# output
1: 1.68; 2: 1.38; 3: 1.63; 4: 1.64; 5: 1.51; 6: 1.78
